Sourced from the supplement of paper PMC13386468

- TARGET OR TEST SYSTEM: UniProt Q8I6U4
- Sequence (Q8I6U4 whole entry): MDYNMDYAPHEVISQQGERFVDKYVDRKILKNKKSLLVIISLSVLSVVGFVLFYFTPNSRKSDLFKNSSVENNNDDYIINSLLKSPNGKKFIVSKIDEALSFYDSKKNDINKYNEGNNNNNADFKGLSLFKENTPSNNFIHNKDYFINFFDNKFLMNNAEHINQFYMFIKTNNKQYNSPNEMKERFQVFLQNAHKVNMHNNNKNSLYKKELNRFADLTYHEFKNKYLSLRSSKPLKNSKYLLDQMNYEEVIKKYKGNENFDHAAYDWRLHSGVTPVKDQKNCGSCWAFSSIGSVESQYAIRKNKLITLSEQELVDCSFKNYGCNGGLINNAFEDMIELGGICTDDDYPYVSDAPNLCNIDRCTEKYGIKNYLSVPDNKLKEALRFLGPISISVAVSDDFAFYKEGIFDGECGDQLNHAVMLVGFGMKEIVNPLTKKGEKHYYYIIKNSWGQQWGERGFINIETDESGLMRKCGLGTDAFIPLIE
- MEASUREMENT NOTES: IC50 for competition of protein binding to Kinobeads;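 note: native unpurified kinases from lysate captured on beads bearing immobilized kinase inhibitors, with bead-bound kinases quantified by mass spectrometry across compound doses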
- RUN CONDITIONS: assay detail: Kinobeads competition in P. falciparum blood-stage lysate
MEASURED QUANTITY: IC50

Input: Look at this compound and give its reported IC50. O=c1[nH]c2ccc(Cl)cc2c(NC2CN3CCC2CC3)c1-c1nc2ccccc2[nH]1 (stereo unspecified)
Output: > 20 µM

###

- TARGET OR TEST SYSTEM: UniProt Q8ILZ7
- MEASUREMENT NOTES: IC50 for competition of protein binding to Kinobeads
- RUN CONDITIONS: assay detail: Kinobeads competition in P. falciparum blood-stage lysate
pIC50: −log10 of the molar value.
MEASURED QUANTITY: pIC50

Input: I'm curious: which pIC50 was measured for O=c1[nH]c2ccc(Cl)cc2c(NC2CN3CCC2CC3)c1-c1nc2ccccc2[nH]1 (stereo unspecified) [CHIR-124] tested on UniProt Q8ILZ7?
Output: < 4.70

###

- TARGET OR TEST SYSTEM: UniProt Q8IIA4
- MEASUREMENT NOTES: IC50 for competition of protein binding to Kinobeads
- RUN CONDITIONS: assay detail: Kinobeads competition in P. falciparum blood-stage lysate
MEASURED QUANTITY: IC50

Input: Look at this compound and give its reported IC50. O=c1[nH]c2ccc(Cl)cc2c(NC2CN3CCC2CC3)c1-c1nc2ccccc2[nH]1 (stereo unspecified)
Output: > 20 µM

###

- TARGET OR TEST SYSTEM: UniProt Q8I2V4
- MEASUREMENT NOTES: IC50 for competition of protein binding to Kinobeads
- RUN CONDITIONS: assay detail: Kinobeads competition in P. falciparum blood-stage lysate
pIC50: −log10 of the molar value.
MEASURED QUANTITY: pIC50

Input: Look at this compound and give its reported pIC50. O=c1[nH]c2ccc(Cl)cc2c(NC2CN3CCC2CC3)c1-c1nc2ccccc2[nH]1 (stereo unspecified)
Output: < 4.70

###

- TARGET OR TEST SYSTEM: UniProt Q8I608
- MEASUREMENT NOTES: IC50 for competition of protein binding to Kinobeads
- RUN CONDITIONS: assay detail: Kinobeads competition in P. falciparum blood-stage lysate
MEASURED QUANTITY: IC50

Input: Look at this compound and give its reported IC50. O=c1[nH]c2ccc(Cl)cc2c(NC2CN3CCC2CC3)c1-c1nc2ccccc2[nH]1 (stereo unspecified)
Output: > 20 µM

###

- TARGET OR TEST SYSTEM: UniProt Q8II16
- MEASUREMENT NOTES: IC50 for competition of protein binding to Kinobeads
- RUN CONDITIONS: assay detail: Kinobeads competition in P. falciparum blood-stage lysate
MEASURED QUANTITY: IC50

Input: Look at this compound and give its reported IC50. O=c1[nH]c2ccc(Cl)cc2c(NC2CN3CCC2CC3)c1-c1nc2ccccc2[nH]1 (stereo unspecified)
Output: > 20 µM

###

- TARGET OR TEST SYSTEM: UniProt Q8IDZ2
- MEASUREMENT NOTES: IC50 for competition of protein binding to Kinobeads
- RUN CONDITIONS: assay detail: Kinobeads competition in P. falciparum blood-stage lysate
pIC50: −log10 of the molar value.
MEASURED QUANTITY: pIC50

Input: I'm curious: which pIC50 was measured for O=c1[nH]c2ccc(Cl)cc2c(NC2CN3CCC2CC3)c1-c1nc2ccccc2[nH]1 (stereo unspecified) tested on UniProt Q8IDZ2?
Output: < 4.70

###

- TARGET OR TEST SYSTEM: UniProt P27362
- Sequence (P27362 whole entry): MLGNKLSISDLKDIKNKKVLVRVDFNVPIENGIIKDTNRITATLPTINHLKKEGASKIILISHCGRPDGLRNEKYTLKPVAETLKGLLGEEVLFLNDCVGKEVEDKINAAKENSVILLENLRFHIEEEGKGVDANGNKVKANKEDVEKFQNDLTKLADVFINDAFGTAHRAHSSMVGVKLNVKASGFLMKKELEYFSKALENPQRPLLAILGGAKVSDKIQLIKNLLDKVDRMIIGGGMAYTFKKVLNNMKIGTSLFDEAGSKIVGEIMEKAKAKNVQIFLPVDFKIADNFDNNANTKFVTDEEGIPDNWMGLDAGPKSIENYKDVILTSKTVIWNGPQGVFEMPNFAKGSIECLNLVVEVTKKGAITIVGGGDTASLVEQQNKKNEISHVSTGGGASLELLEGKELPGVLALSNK
- MEASUREMENT NOTES: IC50 for competition of protein binding to Kinobeads
- RUN CONDITIONS: assay detail: Kinobeads competition in P. falciparum blood-stage lysate
pIC50: −log10 of the molar value.
MEASURED QUANTITY: pIC50

Input: Look at this compound and give its reported pIC50. O=c1[nH]c2ccc(Cl)cc2c(NC2CN3CCC2CC3)c1-c1nc2ccccc2[nH]1 (stereo unspecified) [CHIR-124]
Output: < 4.70

###

- TARGET OR TEST SYSTEM: UniProt Q8IJA9
- Sequence (whole entry): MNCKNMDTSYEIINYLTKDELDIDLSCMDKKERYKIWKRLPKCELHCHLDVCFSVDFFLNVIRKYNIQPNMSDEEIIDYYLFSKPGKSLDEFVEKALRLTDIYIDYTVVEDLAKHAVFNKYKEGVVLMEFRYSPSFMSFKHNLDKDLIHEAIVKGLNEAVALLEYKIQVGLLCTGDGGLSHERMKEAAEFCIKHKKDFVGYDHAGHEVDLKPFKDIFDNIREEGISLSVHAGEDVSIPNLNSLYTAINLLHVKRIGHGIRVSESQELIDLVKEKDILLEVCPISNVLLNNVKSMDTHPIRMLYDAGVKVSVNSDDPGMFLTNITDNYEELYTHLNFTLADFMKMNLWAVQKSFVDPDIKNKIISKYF
- MEASUREMENT NOTES: IC50 for competition of protein binding to Kinobeads
- RUN CONDITIONS: assay detail: Kinobeads competition in P. falciparum blood-stage lysate
MEASURED QUANTITY: IC50

Input: Look at this compound and give its reported IC50. O=c1[nH]c2ccc(Cl)cc2c(NC2CN3CCC2CC3)c1-c1nc2ccccc2[nH]1 (stereo unspecified)
Output: > 20 µM

###

- TARGET OR TEST SYSTEM: UniProt Q8IBU2
- MEASUREMENT NOTES: IC50 for competition of protein binding to Kinobeads
- RUN CONDITIONS: assay detail: Kinobeads competition in P. falciparum blood-stage lysate
MEASURED QUANTITY: IC50

Input: Look at this compound and give its reported IC50. O=c1[nH]c2ccc(Cl)cc2c(NC2CN3CCC2CC3)c1-c1nc2ccccc2[nH]1 (stereo unspecified)
Output: > 20 µM

###

- TARGET OR TEST SYSTEM: UniProt Q8I2U5
- MEASUREMENT NOTES: IC50 for competition of protein binding to Kinobeads
- RUN CONDITIONS: assay detail: Kinobeads competition in P. falciparum blood-stage lysate
pIC50: −log10 of the molar value.
MEASURED QUANTITY: pIC50

Input: I'm curious: which pIC50 was measured for O=c1[nH]c2ccc(Cl)cc2c(NC2CN3CCC2CC3)c1-c1nc2ccccc2[nH]1 (stereo unspecified) tested on UniProt Q8I2U5?
Output: < 4.70

###

- TARGET OR TEST SYSTEM: UniProt Q8IDH5
- MEASUREMENT NOTES: IC50 for competition of protein binding to Kinobeads
- RUN CONDITIONS: assay detail: Kinobeads competition in P. falciparum blood-stage lysate
pIC50: −log10 of the molar value.
MEASURED QUANTITY: pIC50

Input: Look at this compound and give its reported pIC50. O=c1[nH]c2ccc(Cl)cc2c(NC2CN3CCC2CC3)c1-c1nc2ccccc2[nH]1 (stereo unspecified) [CHIR-124]
Output: < 4.70

###

- TARGET OR TEST SYSTEM: UniProt Q8IDV2
- MEASUREMENT NOTES: IC50 for competition of protein binding to Kinobeads
- RUN CONDITIONS: assay detail: Kinobeads competition in P. falciparum blood-stage lysate
pIC50: −log10 of the molar value.
MEASURED QUANTITY: pIC50

Input: Look at this compound and give its reported pIC50. O=c1[nH]c2ccc(Cl)cc2c(NC2CN3CCC2CC3)c1-c1nc2ccccc2[nH]1 (stereo unspecified) [CHIR-124]
Output: < 4.70

###

- TARGET OR TEST SYSTEM: UniProt Q8IID5
- MEASUREMENT NOTES: IC50 for competition of protein binding to Kinobeads
- RUN CONDITIONS: assay detail: Kinobeads competition in P. falciparum blood-stage lysate
MEASURED QUANTITY: IC50

Input: Look at this molecule and give its reported IC50. O=c1[nH]c2ccc(Cl)cc2c(NC2CN3CCC2CC3)c1-c1nc2ccccc2[nH]1 (stereo unspecified)
Output: > 20 µM

###

- TARGET OR TEST SYSTEM: UniProt Q8III5
- MEASUREMENT NOTES: IC50 for competition of protein binding to Kinobeads
- RUN CONDITIONS: assay detail: Kinobeads competition in P. falciparum blood-stage lysate
pIC50: −log10 of the molar value.
MEASURED QUANTITY: pIC50

Input: Look at this compound and give its reported pIC50. O=c1[nH]c2ccc(Cl)cc2c(NC2CN3CCC2CC3)c1-c1nc2ccccc2[nH]1 (stereo unspecified)
Output: < 4.70

###

- TARGET OR TEST SYSTEM: UniProt Q8IHT3
- MEASUREMENT NOTES: IC50 for competition of protein binding to Kinobeads
- RUN CONDITIONS: assay detail: Kinobeads competition in P. falciparum blood-stage lysate
pIC50: −log10 of the molar value.
MEASURED QUANTITY: pIC50

Input: I'm curious: which pIC50 was measured for O=c1[nH]c2ccc(Cl)cc2c(NC2CN3CCC2CC3)c1-c1nc2ccccc2[nH]1 (stereo unspecified) [CHIR-124] tested on UniProt Q8IHT3?
Output: < 4.70
